assay.text: In Vitro Cytotoxicity Assay HCT116 (CellTiter-Glo)
Type: cell-based
test.conditions: human, HCT116 colon carcinoma cells, cultured three days
In plain terms, low IC50 at 3 days, meaning strictly below 10 µM, gives satisfied, and everything else gives not satisfied.

compound	class
CN(C)Cc1cccc(C(=O)Nc2cccc(-c3csc(-c4cncnc4N)n3)c2)c1 [Compound 55]	satisfied
Nc1ncncc1-c1nc(-c2cccc(NC(=O)N3CCCCC3)c2)cs1 [Compound 68]	not satisfied

Lab note: confirm whether the reported IC50 at 3 days for this compound is below 10 µM, equality not counting. compound: CCc1ccc(NC(=O)Nc2cccc(-c3csc(-c4cncnc4N)n3)c2)cc1 [Compound 28]
satisfied

Lab note: confirm whether the reported IC50 at 3 days for this compound is below 10 µM, equality not counting. compound: Nc1ncncc1-c1nc(-c2cccc(NC(=O)Nc3ccccc3)c2)cs1 [Compound 4]
satisfied

Lab note: confirm whether the reported IC50 at 3 days for this compound is below 10 µM, equality not counting. compound: Nc1ncncc1-c1nc(-c2cccc(NC(=O)C3CCCC3)c2)cs1 [Compound 64]
not satisfied

Lab note: confirm whether the reported IC50 at 3 days for this compound is below 10 µM, equality not counting. compound: Nc1ncncc1-c1nc(-c2cccc(NC(=O)Nc3ccc(Cl)c(C(F)(F)F)c3)c2)cs1 [Compound 22]
satisfied

Lab note: confirm whether the reported IC50 at 3 days for this compound is below 10 µM, equality not counting. compound: Nc1ncncc1-c1nc(-c2cccc(NC(=O)c3ccccc3)c2)cs1 [Compound 3]
not satisfied

Lab note: confirm whether the reported IC50 at 3 days for this compound is below 10 µM, equality not counting. compound: Nc1ncncc1-c1nc(-c2cccc(NC(=O)c3cccc(CN4CCOCC4)c3)c2)cs1 [Compound 52]
satisfied

Lab note: confirm whether the reported IC50 at 3 days for this compound is below 10 µM, equality not counting. compound: Cc1nc(-c2cccc(NC(=O)Nc3cccc(-c4csc(-c5cncnc5N)n4)c3)c2)no1 [Compound 47]
not satisfied

Lab note: confirm whether the reported IC50 at 3 days for this compound is below 10 µM, equality not counting. compound: Nc1ncncc1-c1nc(-c2cccc(NC(=O)c3cccc(Cl)c3)c2)cs1 [Compound 6]
not satisfied

Lab note: confirm whether the reported IC50 at 3 days for this compound is below 10 µM, equality not counting. compound: CC(=O)Nc1cccc(-c2csc(-c3cncnc3N)n2)c1 [Compound 61]
not satisfied

Lab note: confirm whether the reported IC50 at 3 days for this compound is below 10 µM, equality not counting. compound: Nc1ncncc1-c1nc(-c2cccc(NC(=O)Nc3ccccc3C(F)(F)F)c2)cs1 [Compound 20]
not satisfied

Lab note: confirm whether the reported IC50 at 3 days for this compound is below 10 µM, equality not counting. compound: Nc1ncncc1-c1nc(-c2cccc(NC(=O)c3ccccn3)c2)cs1 [Compound 21]
not satisfied

Lab note: confirm whether the reported IC50 at 3 days for this compound is below 10 µM, equality not counting. compound: Nc1ncncc1-c1nc(-c2cccc(NC(=O)c3cccc(CNCCO)c3)c2)cs1 [Compound 56]
satisfied

Lab note: confirm whether the reported IC50 at 3 days for this compound is below 10 µM, equality not counting. compound: CCNC(=O)Nc1cccc(-c2csc(-c3cncnc3N)n2)c1 [Compound 60]
not satisfied

Lab note: confirm whether the reported IC50 at 3 days for this compound is below 10 µM, equality not counting. compound: Nc1ncncc1-c1nc(-c2cccc(NC(=O)C3CCCCC3)c2)cs1 [Compound 62]
not satisfied
